Data origin, for the record: patent US20250313625A1

Kindly state TOP blocking (%) for each of the entries shown.
# target.under.test: T1, hFc tagged human LAG3 ECD recombinant protein (human, UniProt P18627 23-450)
# T1 construct: range 23-450; also called biotin labelled hFc tagged human LAG3 ECD; not shown: human IgG Fc tag
# T1 sequence (looked up): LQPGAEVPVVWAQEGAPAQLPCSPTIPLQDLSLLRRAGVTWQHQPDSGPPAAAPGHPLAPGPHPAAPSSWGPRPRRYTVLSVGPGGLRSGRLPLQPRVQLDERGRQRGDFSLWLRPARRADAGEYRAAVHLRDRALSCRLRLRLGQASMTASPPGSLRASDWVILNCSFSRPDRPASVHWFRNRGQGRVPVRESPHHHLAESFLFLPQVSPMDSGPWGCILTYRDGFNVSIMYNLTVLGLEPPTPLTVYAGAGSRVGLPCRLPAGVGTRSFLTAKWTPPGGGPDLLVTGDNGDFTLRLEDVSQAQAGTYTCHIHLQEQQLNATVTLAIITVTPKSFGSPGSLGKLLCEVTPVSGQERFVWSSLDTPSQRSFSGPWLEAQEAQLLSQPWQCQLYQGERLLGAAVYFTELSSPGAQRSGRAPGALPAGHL
# method.notes: competitive FACS: hFc-LAG3 ECD binding to Raji cells (MHC II)
# Procedure: Competitive FACS assay was used to determine whether the purified hybridoma antibodies can block LAG3 and MHC II interaction. […] After washing, dye labeled anti-human Fc 2nd antibody (Sigma) was added and incubated at 37° C. for 1 hour. Fluorescence intensity was detected.
Numbers only, in %.

>  <binder>
Antibody 038 (antibody, V domains shown, mouse hybridoma antibody) VH: DVQVQESGPGLVKPSQSLSLTCSVTGYSITSGYYWNWIRQFPGNKLEWMGYISYDGSNEYNLSLKNRLSITRDTSKNQFFLKLNSVTTEDTATYYCAREEDGYYGGMDYWGQGTSVTVSS VL: DIVMTQSHKFMSASVGVRVSITCRASQDVDTAVAWYQQKPGQSPKLLIYWASTRHTGVPDRFTGSGSGTDFTLTISNVQSEDLADYFCQQYSSYPYTFGGGTKLEIK

>  <reported.measurement>
100

$$$$

Report TOP blocking (%) for Antibody 033 (antibody, V domains shown, mouse hybridoma antibody) VH: EVQLQQSGAELVRPGASVKLSCTASDFNIKDDYIHWVKQRPEQGLEWIGWIDLENGDTEYASKFQGKATITADTSSNTAYLQLSSLTSEDTAVYYCTTKGSHWGQGTLVTVSA VL: DVVMTQIPLSLPVSLGDQASISCRSSQSLVYSNGNTYLNWYLQKPGQSPKLLIHKVSNRFSGVPDRFSGSGSGTDFTLKISRVEAEDLGVYFCSQSTHVPYTFGGGTKLEIR 98.8
